# measured-on: T1, IRF4 DBD D106Y (Homo sapiens, UniProt Q15306 20-132, D106Y)
# T1 sequence: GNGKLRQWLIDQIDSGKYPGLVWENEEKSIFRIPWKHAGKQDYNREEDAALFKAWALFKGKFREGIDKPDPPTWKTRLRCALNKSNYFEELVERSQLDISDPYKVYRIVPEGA
# test-protocol: SPR steady state; FP: PBS + 0.05% Tween20, 5 nM DNA, 1 h, room temperature; SPR: Biacore S200, SA chip, protein 0.1-4500 nM, running buffer not given in material; errors are SD
# condition-label: protein: recombinant; tags: N-terminal His8-linker-His8-TEV, cleaved; label: 3' biotin; hairpin, TTTT loop
assay-readout: Kd (nM)
Write it as a number; the unit nM goes unstated.

Find the recorded Kd belonging to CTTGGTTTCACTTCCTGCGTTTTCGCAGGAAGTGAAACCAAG (structured_DNA) [IRE hairpin (biotin)] and report it.
178

Where do these numbers come from? They come from paper doi:10.1101/2025.03.12.642038.
